Listed below: protein stability index values for each entry.
experiment: protein stability index of a GFP-peptide fusion (GPS, HEK-293T) (PSI 1-6); higher = more stable;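 also: 24-mer peptide tiles fused after GFP, lentivirally expressed, FACS-sorted into six equal bins by GFP/DsRed ratio, decoded by Illumina sequencing, PSI is the read-weighted mean bin number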
test.settings: treatment: MLN4924 1 uM, 8 h; c terminus: a fixed tail appended
Returns: the value as a bare number; no unit string appended.

{"columns": ["sequence.chain", "protein stability index"],
 "data": [
  ["HTFNAHAATDITGFGILGHSQNLA [SEPHS2]", 3.04],
  ["ARPWTRDSASLPRKPSVPWQRQMD [RASAL3]", 2.94],
  ["TVGTPDYIAPEVFMQTGYNKLCDW [STK38L]", 2.97]
]}

Input: Quote protein stability index reported for GSSYPTTTISYLPHAPPFAGGHPA [JUNB] please.
Output: 3.09

====

Listed below: protein stability index values for each entry.
experiment: protein stability index of a GFP-peptide fusion (GPS, HEK-293T) (PSI 1-6); higher = more stable
test.settings: treatment: MLN4924 1 uM, 8 h; c terminus: a fixed tail appended
Returns: the value as a bare number; no unit string appended.

# count of solved cases: 2
{"columns": ["sequence.chain", "protein stability index"],
 "data": [
  ["ITDLPRIDVSKREPPPVKQELPPY [EFHC1]", 4.45],
  ["ENDGFVFKMPWKPTHPSSTHALAE [CDC25B]", 3.36]
]}

Input: Quote protein stability index reported for GILTLAMIAFFFIIIYLGPMVLMI [CDS2] please.
Output: 2.48

Input: Quote protein stability index reported for EGHQEGLVELPASFRELLTFFCTN [SCNN1D] please.
Output: 2.71

====

experiment: protein stability index of a GFP-peptide fusion (GPS, HEK-293T) (PSI 1-6); higher = more stable
test.settings: treatment: DMSO; c terminus: a fixed tail appended
Parameter threshold = 3. Response is class 1 when protein stability index meets or exceeds it, else class 0.

{"columns": ["sequence.chain", "class"],
 "data": [
  ["RKKQHICDECGKHFSQGSALILHQ [ZNF24]", "class 1"],
  ["DDDDNLPQLKKESELPFVPNYLAN [ANKRD40]", "class 1"],
  ["PLWQCYLGRFNDINVPIRLECVKF [PDS5B]", "class 0"],
  ["TLVSRAHQLVMEGYNWCHDRNVVT [PPP2CA]", "class 0"]
]}

In the following, a different sequence is considered.
Input: Please check the record QLGYLLFGTQVENFSTFIKCIFTQ [PKD2L1] and state if its protein stability index is at or above 3.
Output: class 0

====

experiment: protein stability index of a GFP-peptide fusion (GPS, HEK-293T) (PSI 1-6); higher = more stable
test.settings: treatment: DMSO; c terminus: a fixed tail appended
Listed below: protein stability index values for each entry.

# count of solved cases: 3
{"columns": ["sequence.chain", "protein stability index"],
 "data": [
  ["REVEARYALQMEQLNGILLHLESE [KRT18]", 2.98],
  ["AQTLHHKSCYNGRFQLLYVACGMV [DNAAF3]", 2.94],
  ["KQQENATSCSLELIGDLIGHSSSV [WDR41]", 3.02]
]}

Input: Quote protein stability index reported for QDGSESFFFRHGHRGLLTMQLKSP [SPAG8] please.
Output: 2.96

====

experiment: protein stability index of a GFP-peptide fusion (GPS, HEK-293T) (PSI 1-6); higher = more stable
test.settings: treatment: DMSO; c terminus: a fixed tail appended
observable: protein stability index
Returns: the value as a bare number; no unit string appended.

# count of solved cases: 2
{"columns": ["sequence.chain", "observable", "number"],
 "data": [
  ["PYSKTLVLQTSEGKALQQYPSERE [TRIM9]", "protein stability index", 4.63],
  ["MSEMAELSELYEESSDLQMDVMPG [EID1]", "protein stability index", 5.43]
]}

Now look at this entry.
Input: Quote protein stability index reported for MAPVMAHVDPEEPWSPCSARFITD [ADAMTS4] please.
Output: 3.76

====

experiment: protein stability index of a GFP-peptide fusion (GPS, HEK-293T) (PSI 1-6); higher = more stable
test.settings: treatment: DMSO; c terminus: a fixed tail appended
Listed below: protein stability index values for each entry.

# count of solved cases: 5
{"columns": ["sequence.chain", "result"],
 "data": [
  ["VQQQKLAEERRRQNLQEEKERKLE [FAF2]", 4.87],
  ["TVGTPDYIAPEVFMQTGYNKLCDW [STK38L]", 2.82],
  ["AARLLRALSSFREESRFCDAHLVL [GAN]", 2.41],
  ["SVSNSTQTSSSSSQSETSSAVSTP [DLC1]", 5.5],
  ["LHSLDDFYIGKYFGGVLEYFMIQA [RHOBTB3]", 2.78]
]}

Input: Quote protein stability index reported for RLRVELECEEGELSFYDAERHCHL [TRIM35] please.
Output: 3.66

Input: Quote protein stability index reported for RSGSPTVPIKPPCIPNGKENFSGG [CAMK2D] please.
Output: 4.2

====

experiment: protein stability index of a GFP-peptide fusion (GPS, HEK-293T) (PSI 1-6); higher = more stable
test.settings: treatment: DMSO; c terminus: a fixed tail appended
observable: protein stability index
Returns: the value as a bare number; no unit string appended.

Input: Quote protein stability index reported for DENGRPYSPSQYALQYAGDGSVLL [NFE2L1] please.
Output: 3.57

Input: Quote protein stability index reported for KQLICPICLEMFTKPVVILPCQHN [TRIM63] please.
Output: 2.97

====

experiment: protein stability index of a GFP-peptide fusion (GPS, HEK-293T) (PSI 1-6); higher = more stable
test.settings: treatment: MLN4924 1 uM, 8 h; c terminus: a fixed tail appended
Listed below: protein stability index values for each entry.
Returns: the value as a bare number; no unit string appended.

# count of solved cases: 5
{"columns": ["sequence.chain", "protein stability index"],
 "data": [
  ["FALASLLQSAPDVKGRVRCLTAGP [ZSWIM9]", 2.42],
  ["VWMDDFKSHVYMAWNIPMSNPGVD [GALNT9]", 2],
  ["SEDAVGGATLGQTTSEEAVGGATL [HDAC6]", 5.18],
  ["ELESLSAIEAELEKVAHQLQALRR [CHGA]", 4.97],
  ["KAFYKRYRLTEHERAHKGEKPYGC [ZNF649]", 3.16]
]}

Input: Quote protein stability index reported for RQPPPPAPQHPQPGSQALPAPALA [FBXO28] please.
Output: 4.74

Input: Quote protein stability index reported for KQQENATSCSLELIGDLIGHSSSV [WDR41] please.
Output: 3.17

Input: Quote protein stability index reported for QVHQGIKGMVLDENYNNLANAVIS [CPN1] please.
Output: 2.62

Input: Quote protein stability index reported for VSKGAESSRSSEESSSDSGSSDSE [BRD3] please.
Output: 5.6

Input: Quote protein stability index reported for GPYDPNSVRISFAKGWGPCYSRQF [SMAD6] please.
Output: 2.25

Input: Quote protein stability index reported for SVAPMNVRRGLAGATTLGDMIYVS [KLHL12] please.
Output: 2.96

Input: Quote protein stability index reported for LGTPTSSTPRPSITPTKKIELDRT [C2CD2L] please.
Output: 4.88

Input: Quote protein stability index reported for LKLQTKTIKVSYARPSSASIRDAN [ELAVL3] please.
Output: 2.91

Input: Quote protein stability index reported for TVFYIPEDHKPGTFPKALTNGSFS [DLC1] please.
Output: 3.11

Input: Quote protein stability index reported for HKACEVAPLQSVFQGQKTELNNCI [TRIM63] please.
Output: 3.67

Input: Quote protein stability index reported for RFLDYEMQNSNECKRNFVAVYDGS [NETO1] please.
Output: 3.31

Input: Quote protein stability index reported for QFLEEINKWTVQYNVSPLSWNVAV [PTPN9] please.
Output: 2.87

Input: Quote protein stability index reported for IRRAYPDANLLNDRVLRAMLKAEE [CCND1] please.
Output: 3.52

Input: Quote protein stability index reported for QETPGPREALTRLQELCYQWLRPH [ZSCAN9] please.
Output: 2.6

Input: Quote protein stability index reported for ECMLLVFGIDVKEVDPTGHSFVLV [MAGEA10] please.
Output: 2.8

Input: Quote protein stability index reported for CEVPTCSLCKVFGAHKDCQVAPLT [TRIM55] please.
Output: 3.7

Input: Quote protein stability index reported for GDPEEIRMLIHKTEDVNTLDSEKR [ANKRD44] please.
Output: 5.33

====

Listed below: protein stability index values for each entry.
experiment: protein stability index of a GFP-peptide fusion (GPS, HEK-293T) (PSI 1-6); higher = more stable
test.settings: treatment: MLN4924 1 uM, 8 h; c terminus: a fixed tail appended
Returns: the value as a bare number; no unit string appended.

{"columns": ["sequence.chain", "number"],
 "data": [
  ["NFDHFEILRAIGKGSFGKVCIVQK [STK32A]", 3.02]
]}

Now look at this entry.
Input: Quote protein stability index reported for MTDGILGKAATMEIPIHGNGEARQ [ARFIP2] please.
Output: 4.57
